Consider the following binders and their measured MFI at 0.0128 nM readings.
# system_tested: T1, human CTLA-4 (Y201V), full length, on transfected cells (human, UniProt P16410 36-223)
# T1 construct: whole, on cells; also called hCTLA-4; HEK293-hCTLA-4 (Y201V)
# T1 sequence (looked up): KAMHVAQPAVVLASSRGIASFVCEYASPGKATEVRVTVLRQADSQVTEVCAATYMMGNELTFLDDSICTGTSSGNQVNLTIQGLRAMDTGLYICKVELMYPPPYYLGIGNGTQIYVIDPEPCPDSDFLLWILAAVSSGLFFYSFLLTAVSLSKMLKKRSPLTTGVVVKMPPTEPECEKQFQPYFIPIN
# method: FACS, human CTLA-4 expressing cells
# answer = number (no unit)

Sample records with MFI at 0.0128 nM:
binder	MFI at 0.0128 nM
97A8D1 fully human CTLA-4 antibody (human IgG1, kappa) (antibody, V domains shown, also called mAb49; mAb049) VH: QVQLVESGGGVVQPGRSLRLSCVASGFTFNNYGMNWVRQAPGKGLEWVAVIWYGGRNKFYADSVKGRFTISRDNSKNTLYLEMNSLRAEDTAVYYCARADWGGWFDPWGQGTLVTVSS VL: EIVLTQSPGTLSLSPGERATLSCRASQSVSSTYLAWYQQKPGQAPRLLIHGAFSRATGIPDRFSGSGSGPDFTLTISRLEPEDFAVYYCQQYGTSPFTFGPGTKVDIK	22
40C4C6 fully human CTLA-4 antibody (human IgG1, kappa) (antibody, V domains shown, also called mAb09; mAb009) VH: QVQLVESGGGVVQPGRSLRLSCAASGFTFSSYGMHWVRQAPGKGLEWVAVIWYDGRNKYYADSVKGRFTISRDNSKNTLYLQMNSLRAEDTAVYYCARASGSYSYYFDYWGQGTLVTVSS VL: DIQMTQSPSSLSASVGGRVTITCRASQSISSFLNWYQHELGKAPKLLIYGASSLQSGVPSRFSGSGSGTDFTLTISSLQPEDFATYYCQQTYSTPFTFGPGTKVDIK	24

Q: Please give measured MFI at 0.0128 nM of the following entry: 92C8B6 fully human CTLA-4 antibody (human IgG1, kappa) (antibody, V domains shown, also called mAb42; mAb042) VH: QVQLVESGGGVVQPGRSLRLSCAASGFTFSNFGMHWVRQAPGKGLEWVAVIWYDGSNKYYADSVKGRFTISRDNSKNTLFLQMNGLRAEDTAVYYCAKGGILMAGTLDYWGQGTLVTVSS VL: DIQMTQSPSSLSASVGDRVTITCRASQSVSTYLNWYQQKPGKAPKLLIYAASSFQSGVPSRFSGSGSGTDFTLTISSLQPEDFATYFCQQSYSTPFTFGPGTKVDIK
A: 23

Q: Answer with reported MFI at 0.0128 nM of 31C12F3 fully human CTLA-4 antibody (human IgG1, kappa) (antibody, V domains shown, also called mAb010) VH: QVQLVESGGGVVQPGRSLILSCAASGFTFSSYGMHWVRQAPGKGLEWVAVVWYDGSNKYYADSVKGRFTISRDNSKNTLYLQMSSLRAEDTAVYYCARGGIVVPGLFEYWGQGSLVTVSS VL: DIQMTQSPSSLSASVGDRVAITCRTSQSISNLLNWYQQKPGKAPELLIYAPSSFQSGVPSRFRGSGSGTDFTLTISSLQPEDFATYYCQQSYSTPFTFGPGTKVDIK
A: 34
